Tested on: E. coli GC 2232
experimentalProtocol: MIC, broth microdilution
conditionContext: Escherichia coli, GC2232, E. coli GC 2232; Water pre-incubation
Please go through the items and note down their MIC.
One number for each entry, in µg/mL.

Check out these entries, answers already filled in.
CCCCN(CC(=O)Nc1cc(N(C)C)c2c(c1O)C(=O)C1=C(O)[C@]3(O)C(=O)C(C(N)=O)=C(O)[C@@H](N(C)C)C3CC1C2)C(=O)OCOC(=O)c1ccc(OC)cc1 (some centres unmarked) ... 64
CCCN(CC(=O)Nc1cc(N(C)C)c2c(c1O)C(=O)C1=C(O)[C@]3(O)C(=O)C(C(N)=O)=C(O)[C@@H](N(C)C)[C@@H]3C[C@@H]1C2)C(=O)OCOC(=O)Cc1ccccc1 ... 16

Consider now this further compound.
Would you kindly share the measured MIC for `CCCCN(CC(=O)Nc1cc(N(C)C)c2c(c1O)C(=O)C1=C(O)[C@]3(O)C(=O)C(C(N)=O)=C(O)[C@@H](N(C)C)[C@@H]3C[C@@H]1C2)C(=O)OCOC(=O)c1ccc(F)cc1` ?
64

----------
System: S. aureus GC 6335
experimentalProtocol: MIC, broth microdilution
conditionContext: Staphylococcus aureus, GC6335, S. aureus GC 6335; Water pre-incubation
Please go through the items and note down their MIC.
Answers are plain numbers, in µg/mL.

CCCN(CC(=O)Nc1cc(N(C)C)c2c(c1O)C(=O)C1=C(O)[C@]3(O)C(=O)C(C(N)=O)=C(O)[C@@H](N(C)C)[C@@H]3C[C@@H]1C2)C(=O)OCC [Example 15] ... 4
CCCCN(CC(=O)Nc1cc(N(C)C)c2c(c1O)C(=O)C1=C(O)[C@]3(O)C(=O)C(C(N)=O)=C(O)[C@@H](N(C)C)[C@@H]3C[C@@H]1C2)C(=O)OCOC(=O)c1ccc(F)cc1 [Example 4] ... 4
CCCCN(CC(=O)Nc1cc(N(C)C)c2c(c1O)C(=O)C1=C(O)[C@]3(O)C(=O)C(C(N)=O)=C(O)[C@@H](N(C)C)[C@@H]3C[C@@H]1C2)C(=O)OCOC(=O)Cc1ccccc1 [Example 12] ... 2
CCCN(CC(=O)Nc1cc(N(C)C)c2c(c1O)C(=O)C1=C(O)[C@]3(O)C(=O)C(C(N)=O)=C(O)[C@@H](N(C)C)[C@@H]3C[C@@H]1C2)C(=O)OCOC(=O)C(C)C [Example 10] ... 0.5

Consider now this further compound.
Would you kindly share the measured MIC for CCCN(CC(=O)Nc1cc(N(C)C)c2c(c1O)C(=O)C1=C(O)[C@]3(O)C(=O)C(C(N)=O)=C(O)[C@@H](N(C)C)[C@@H]3C[C@@H]1C2)C(=O)OCOC(=O)c1ccc(F)cc1 [Example 8] ?
4

----------
Test system: S. aureus GC 6469
experimentalProtocol: MIC, broth microdilution
conditionContext: Staphylococcus aureus, GC6469, read-out: MINIMAL INHIBITORY CONCENTRATION MIC, pre-incubated in Water
Please go through the items and note down their MIC.

CCCCN(CC(=O)Nc1cc(N(C)C)c2c(c1O)C(=O)C1=C(O)[C@]3(O)C(=O)C(C(N)=O)=C(O)[C@@H](N(C)C)[C@@H]3C[C@@H]1C2)C(=O)OCOC(=O)c1cc(C)cc(C)c1 ... 64 µg/mL

Consider now this further molecule.
Provide value of MIC for this record tested with S. aureus GC 6469: `CN(C)c1cc(NC(=O)CN(C(=O)OCOC(=O)c2ccc(C(C)(C)C)cc2)C(C)(C)C)c(O)c2c1C[C@H]1C[C@H]3[C@H](N(C)C)C(O)=C(C(N)=O)C(=O)[C@@]3(O)C(O)=C1C2=O`
> 64 µg/mL

----------
Please go through the items and note down their MIC.
Tested on: E. coli GC 2231
experimentalProtocol: MIC, broth microdilution
conditionContext: Escherichia coli, GC2231, E. coli GC 2231; Water pre-incubation
Give bare numbers, in µg/mL.

Check out these entries, answers already filled in.
CCCN(CC(=O)Nc1cc(N(C)C)c2c(c1O)C(=O)C1=C(O)[C@]3(O)C(=O)C(C(N)=O)=C(O)[C@@H](N(C)C)[C@@H]3C[C@@H]1C2)C(=O)OCOC(=O)C1CCC1 [Example 7] ... 16
CCCCN(CC(=O)Nc1cc(N(C)C)c2c(c1O)C(=O)C1=C(O)[C@]3(O)C(=O)C(C(N)=O)=C(O)[C@@H](N(C)C)[C@@H]3C[C@@H]1C2)C(=O)OCOC(=O)C(C)(C)C [Example 13] ... 16
CCCCN(CC(=O)Nc1cc(N(C)C)c2c(c1O)C(=O)C1=C(O)[C@]3(O)C(=O)C(C(N)=O)=C(O)[C@@H](N(C)C)C3CC1C2)C(=O)OCOC(=O)C(C)C (some centres unmarked) [Example 1] ... 64

Consider now this further compound.
Would you kindly share the measured MIC for CCCN(CC(=O)Nc1cc(N(C)C)c2c(c1O)C(=O)C1=C(O)[C@]3(O)C(=O)C(C(N)=O)=C(O)[C@@H](N(C)C)[C@@H]3C[C@@H]1C2)C(=O)OCOC(=O)c1ccc(C)cc1 [Example 5] ?
64

----------
Test system: S. aureus GC 6335
experimentalProtocol: MIC, broth microdilution
conditionContext: Staphylococcus aureus, GC6335, read-out: MINIMAL INHIBITORY CONCENTRATION MIC, Mouse Serum
assayReadout: MIC (µg/mL)
Give bare numbers, in µg/mL.

Check out these entries, answers already filled in.
CN(C)c1cc(NC(=O)CN(C(=O)OCOC(=O)C2CCCCC2)C(C)(C)C)c(O)c2c1C[C@H]1C[C@H]3[C@H](N(C)C)C(O)=C(C(N)=O)C(=O)[C@@]3(O)C(O)=C1C2=O ... 1
CC(C)CC(=O)OCOC(=O)N(CC(=O)Nc1cc(N(C)C)c2c(c1O)C(=O)C1=C(O)[C@]3(O)C(=O)C(C(N)=O)=C(O)[C@@H](N(C)C)[C@@H]3C[C@@H]1C2)C(C)(C)C ... 0.5
CN(C)c1cc(NC(=O)CN(C(=O)OCOC(=O)c2ccc(F)cc2)C(C)(C)C)c(O)c2c1C[C@H]1C[C@H]3[C@H](N(C)C)C(O)=C(C(N)=O)C(=O)[C@@]3(O)C(O)=C1C2=O ... 1

Would you mind giving MIC for every molecule in the list below?
1. CC(C)COC(=O)N(CC(=O)Nc1cc(N(C)C)c2c(c1O)C(=O)C1=C(O)[C@]3(O)C(=O)C(C(N)=O)=C(O)[C@@H](N(C)C)[C@@H]3C[C@@H]1C2)C(C)(C)C
2. CCCCCCC(=O)OCOC(=O)N(CC(=O)Nc1cc(N(C)C)c2c(c1O)C(=O)C1=C(O)[C@]3(O)C(=O)C(C(N)=O)=C(O)[C@@H](N(C)C)[C@@H]3C[C@@H]1C2)C(C)(C)C

[4, 2]

----------
Please go through the items and note down their ED50.
Test system: Staph. aureus Smith
experimentalProtocol: In vivo activity (oral, iv; ED50) against Staph. aureus Smith in mice
conditionContext: iv, read-out: ED50 Staph Smith SIV
Numbers only, in mg/kg.

Check out these entries, answers already filled in.
CCCCCCC(=O)OCOC(=O)N(CCC)CC(=O)Nc1cc(N(C)C)c2c(c1O)C(=O)C1=C(O)[C@]3(O)C(=O)C(C(N)=O)=C(O)[C@@H](N(C)C)[C@@H]3C[C@@H]1C2 [Example 19] ... 0.31
CCCCN(CC(=O)Nc1cc(N(C)C)c2c(c1O)C(=O)C1=C(O)[C@]3(O)C(=O)C(C(N)=O)=C(O)[C@@H](N(C)C)[C@@H]3C[C@@H]1C2)C(=O)OCOC(=O)Cc1ccccc1 [Example 12] ... 1

Consider now this further compound.
Would you kindly share the measured ED50 for CCCCN(CC(=O)Nc1cc(N(C)C)c2c(c1O)C(=O)C1=C(O)[C@]3(O)C(=O)C(C(N)=O)=C(O)[C@@H](N(C)C)[C@@H]3C[C@@H]1C2)C(=O)OCOC(=O)CC(C)(C)C [Example 36] ?
0.84

----------
Tested on: E. coli GC 2232
experimentalProtocol: MIC, broth microdilution
conditionContext: Escherichia coli, GC2232, read-out: MINIMAL INHIBITORY CONCENTRATION MIC, pre-incubated in Water
assayReadout: MIC

Check out these entries, answers already filled in.
CCCN(CC(=O)Nc1cc(N(C)C)c2c(c1O)C(=O)C1=C(O)[C@]3(O)C(=O)C(C(N)=O)=C(O)[C@@H](N(C)C)[C@@H]3C[C@@H]1C2)C(=O)OCOC(=O)c1cccs1 ... > 64 µg/mL
CCC(C)(C)C(=O)OCOC(=O)N(CC(=O)Nc1cc(N(C)C)c2c(c1O)C(=O)C1=C(O)[C@]3(O)C(=O)C(C(N)=O)=C(O)[C@@H](N(C)C)[C@@H]3C[C@@H]1C2)C(C)(C)C ... > 64 µg/mL
CN(C)c1cc(NC(=O)CN(C(=O)OCOC(=O)CC(C)(C)C)C(C)(C)C)c(O)c2c1C[C@H]1C[C@H]3[C@H](N(C)C)C(O)=C(C(N)=O)C(=O)[C@@]3(O)C(O)=C1C2=O ... > 64 µg/mL

Consider now this further molecule.
Provide value of MIC for this record tested with E. coli GC 2232: `CN(C)c1cc(NC(=O)CN(C(=O)OCOC(=O)C2CCCC2)C(C)(C)C)c(O)c2c1C[C@H]1C[C@H]3[C@H](N(C)C)C(O)=C(C(N)=O)C(=O)[C@@]3(O)C(O)=C1C2=O`
64 µg/mL
